Provide the reported Ki of each item.
target-or-system: UniProtKB P08473
Sequence (P08473 52-750): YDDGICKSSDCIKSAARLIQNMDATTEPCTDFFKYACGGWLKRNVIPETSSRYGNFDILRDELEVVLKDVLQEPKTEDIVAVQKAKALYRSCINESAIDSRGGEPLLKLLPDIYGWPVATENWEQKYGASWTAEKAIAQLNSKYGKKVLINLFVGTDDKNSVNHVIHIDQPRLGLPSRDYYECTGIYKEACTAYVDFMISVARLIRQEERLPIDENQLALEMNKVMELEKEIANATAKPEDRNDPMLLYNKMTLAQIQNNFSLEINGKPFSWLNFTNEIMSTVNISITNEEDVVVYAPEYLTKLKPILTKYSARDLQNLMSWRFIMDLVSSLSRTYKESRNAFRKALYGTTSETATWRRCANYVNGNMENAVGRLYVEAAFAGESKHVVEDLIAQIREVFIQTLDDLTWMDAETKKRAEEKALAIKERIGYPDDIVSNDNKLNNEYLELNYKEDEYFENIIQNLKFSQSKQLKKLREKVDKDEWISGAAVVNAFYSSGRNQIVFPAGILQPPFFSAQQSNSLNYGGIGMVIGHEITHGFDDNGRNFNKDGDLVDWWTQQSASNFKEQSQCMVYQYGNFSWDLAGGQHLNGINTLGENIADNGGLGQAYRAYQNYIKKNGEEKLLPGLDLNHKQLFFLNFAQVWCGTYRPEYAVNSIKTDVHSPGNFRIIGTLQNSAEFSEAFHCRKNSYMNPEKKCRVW
assay-explanation: In vitro enzyme inhibition assay at human NEP (fluorogenic peptide substrate)
details: pKi values at human NEP, recombinant human NEP

Query: // returns reported Ki for input COc1cccc(Cn2nc(C(=O)N[C@H](Cc3ccc(-c4ccccc4)cc3)CC(O)C(=O)O)cc2C(=O)O)c1 (stereo partly shown)
Response: 12.6 to 100 nM

Query: Query O=C(N[C@H](Cc1ccc(-c2ccccc2)cc1)CC(O)C(=O)O)c1cc(C(=O)O)n(Cc2cc(F)ccc2Cl)n1 (stereo partly shown) next
Response: 1.26 to 10 nM

Query: Query Cn1cc(-c2cc(C(=O)N[C@H](Cc3ccc(-c4ccccc4)cc3)CC(O)C(=O)O)n[nH]2)cn1 (stereo partly shown) next
Response: 12.6 to 100 nM

Query: Query O=C(O)c1ccc(C(=O)N[C@H](Cc2ccc(-c3ccccc3)cc2)CC(O)C(=O)O)nn1 (stereo partly shown) next
Response: 12.6 to 100 nM
